procedure_summary: Liver microsomal metabolism, human
Format: in vitro ADME
Parameters: dose or concentration left out as unconfirmed
stated_conditions: pH 7.4; human liver microsomes
assay_endpoint: half-life (h)
Give bare numbers, in h.

Which value of half-life has been reported for Cc1cccc(-c2nnc3c4ccccc4nc(N4CCN(C(=O)Cc5ccccc5)CC4)n23)c1 [triazoloquinoline derivative] in the records?
2.18

---

procedure_summary: Liver microsomal metabolism, human
Assay type: in vitro ADME
Set-up: dose or concentration left out as unconfirmed
stated_conditions: liver microsomes, pH 7.4; human; hepatic intrinsic clearance scaled from microsomes
assay_endpoint: CLint scaled
Please answer using a numeric value trailed by its unit.

Fill in the blank: the reported CLint scaled of Cc1cccc(-c2nnc3c4ccccc4nc(N4CCN(C(=O)Cc5ccccc5)CC4)n23)c1 is ____.
8.54 mL/min/kg

---

procedure_summary: Liver microsomal metabolism, rat
Assay type: in vitro ADME
Set-up: dose or concentration left out as unconfirmed
stated_conditions: pH 7.4; rat liver microsomes
assay_endpoint: half-life (min)
Answers are plain numbers, in min.

Look up half-life: Cc1cccc(-c2nnc3c4ccccc4nc(N4CCN(C(=O)Cc5ccccc5)CC4)n23)c1
42
